# experiment_summary: in vitro
# study_conditions: human
assay_endpoint: CC50 at 48 h

compound | result
COc1c(Br)cc(Br)cc1C(=O)Nc1ccccc1 [Compound 41, 3,5-Dibromo-2-methoxy-N-phenylbenzamide] | > 100 µM
COc1c(Br)cccc1C(=O)Nc1cccc(Cl)c1 | > 100 µM
COc1ccccc1C(=O)Nc1ccc(Sc2nc3ccccc3s2)cc1 | > 100 µM
COc1ccccc1C(=O)Nc1ccc(Sc2nc3ccccc3s2)c(Cl)c1 | > 100 µM
COc1ccc(Br)cc1C(=O)Nc1ccccc1 [Compound 43, 5-Bromo-2-methoxy-N-phenylbenzamide] | > 100 µM
O=C(Nc1ccccc1)c1cc(Br)cc(Br)c1 [Compound 26, 3,5-Dibromo-N-phenylbenzamide] | > 100 µM
O=C(Nc1ccccc1)c1ccccc1O [Compound 16, 2-Hydroxy-N-phenylbenzamide] | > 100 µM
O=C(Nc1ccc(Sc2nc3ccccc3s2)c(Cl)c1)c1cc(Br)cc(Br)c1 | > 100 µM
COc1c(Br)cc(Br)cc1C(=O)Nc1ccc(Sc2nc3ccccc3s2)cc1 | > 100 µM
COc1c(Br)cc(Br)cc1C(=O)Nc1cccc(Cl)c1 | > 100 µM
O=C(Nc1ccccc1)c1cc(Br)cc(Br)c1O [Compound 13, 3,5-Dibromo-2-hydroxy-N-phenylbenzamide] | 33.9 µM
COc1ccccc1C(=O)Nc1cccc(Cl)c1 [Compound 40, N-(3-Chlorophenyl)-2-methoxybenzamide] | > 100 µM
COc1ccc(Br)cc1C(=O)Nc1cccc(Cl)c1 | > 100 µM
COc1ccc(Br)cc1C(=O)Nc1ccc(Sc2nc3ccccc3s2)c(Cl)c1 | > 100 µM
COc1ccccc1C(=O)Nc1ccccc1 [Compound 44, 2-Methoxy-N-phenylbenzamide] | > 100 µM
CO[C@H]1/C=C/O[C@@]2(C)Oc3c(C)c(O)c4c(O)c(c(/C=N/N5CCN(C)CC5)c(O)c4c3C2=O)NC(=O)/C(C)=C\C=C\[C@H](C)[C@H](O)[C@@H](C)[C@@H](O)[C@@H](C)[C@H](OC(C)=O)[C@@H]1C [Rifampicin, rifampicin, reference compound] | > 100 µM
COc1c(Br)cc(Br)cc1C(=O)Nc1ccc(Sc2nc3ccccc3s2)c(Cl)c1 | > 100 µM

====

# tested_on: E. coli GroEL/ES (Escherichia coli)
# Construct: made in house; host or cells: GroEL in E. coli DH5α; GroES in E. coli BL21 (DE3)
# Sequence (P0A6F5 2-548): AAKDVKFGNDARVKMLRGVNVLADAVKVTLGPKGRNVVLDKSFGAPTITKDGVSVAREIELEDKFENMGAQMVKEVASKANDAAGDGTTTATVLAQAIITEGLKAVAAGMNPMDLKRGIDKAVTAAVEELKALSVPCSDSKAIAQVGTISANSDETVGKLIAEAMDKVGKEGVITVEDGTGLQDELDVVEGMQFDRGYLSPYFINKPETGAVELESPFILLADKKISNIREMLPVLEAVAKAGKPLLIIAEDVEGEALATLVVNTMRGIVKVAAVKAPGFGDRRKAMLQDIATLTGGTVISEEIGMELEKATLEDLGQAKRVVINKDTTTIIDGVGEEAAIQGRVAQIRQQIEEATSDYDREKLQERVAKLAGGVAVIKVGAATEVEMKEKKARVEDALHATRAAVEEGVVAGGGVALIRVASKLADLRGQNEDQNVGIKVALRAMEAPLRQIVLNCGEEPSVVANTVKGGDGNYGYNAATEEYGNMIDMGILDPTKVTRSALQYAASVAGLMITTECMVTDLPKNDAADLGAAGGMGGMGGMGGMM
# experiment_summary: GroEL/ES-mediated dMDH refolding assay
# Type: biochemical

compound | IC50
COc1c(Br)cccc1C(=O)Nc1ccccc1 [Compound 42, 3-Bromo-2-methoxy-N-phenylbenzamide] | > 100 µM
COc1ccccc1C(=O)Nc1cccc(Cl)c1 [Compound 40, N-(3-Chlorophenyl)-2-methoxybenzamide] | > 100 µM
COc1ccc(Br)cc1C(=O)Nc1ccccc1 [Compound 43, 5-Bromo-2-methoxy-N-phenylbenzamide] | > 100 µM
COc1ccccc1C(=O)Nc1ccccc1 [Compound 44, 2-Methoxy-N-phenylbenzamide] | > 100 µM
O=C(Nc1cccc(Cl)c1)c1cc(Br)cc(Br)c1 [Compound 23, 3,5-Dibromo-N-(3-chlorophenyl)benzamide] | > 100 µM
O=C(Nc1cccc(Cl)c1)c1ccccc1O [Compound 12, N-(3-Chlorophenyl)-2-hydroxybenzamide] | > 100 µM
Cc1cc(C(C#N)c2ccc(Cl)cc2)c(Cl)cc1NC(=O)c1cc(I)cc(I)c1O (centres unmarked) [Closantel, closantel, reference compound] | 2.24 µM
COc1ccccc1C(=O)Nc1ccc(Sc2nc3ccccc3s2)c(Cl)c1 | > 100 µM
COc1ccccc1C(=O)Nc1ccc(Sc2nc3ccccc3s2)cc1 | > 100 µM
COc1c(Br)cccc1C(=O)Nc1ccc(Sc2nc3ccccc3s2)c(Cl)c1 | > 100 µM
O=C(Nc1ccccc1)c1cccc(Br)c1 [Compound 27, 3-Bromo-N-phenylbenzamide] | > 100 µM
COc1c(Br)cc(Br)cc1C(=O)Nc1ccc(Sc2nc3ccccc3s2)c(Cl)c1 | > 100 µM
CN[C@H](CC(C)C)C(=O)N[C@H]1C(=O)N[C@@H](CC(N)=O)C(=O)N[C@H]2C(=O)N[C@H]3C(=O)N[C@H](C(=O)N[C@H](C(=O)O)c4cc(O)cc(O)c4-c4cc3ccc4O)[C@H](O)c3ccc(c(Cl)c3)Oc3cc2cc(c3O[C@@H]2O[C@H](CO)[C@@H](O)[C@H](O)[C@H]2O[C@H]2C[C@](C)(N)[C@H](O)[C@H](C)O2)Oc2ccc(cc2Cl)[C@H]1O [Vancomycin, vancomycin, reference compound] | > 100 µM
O=C(Nc1ccc(Sc2nc3ccccc3s2)c(Cl)c1)c1ccccc1 | > 100 µM

====

# experiment_summary: in vitro
# study_conditions: human
assay_endpoint: CC50 at 48 h

compound | result
O=C(Nc1ccc(Sc2nc3ccccc3s2)cc1)c1ccccc1 | > 100 µM
O=C(Nc1ccc(Sc2nc3ccccc3s2)cc1)c1cc(Br)cc(Br)c1 | > 100 µM
COc1ccc(Br)cc1C(=O)Nc1ccc(Sc2nc3ccccc3s2)cc1 | > 100 µM
CN[C@H](CC(C)C)C(=O)N[C@H]1C(=O)N[C@@H](CC(N)=O)C(=O)N[C@H]2C(=O)N[C@H]3C(=O)N[C@H](C(=O)N[C@H](C(=O)O)c4cc(O)cc(O)c4-c4cc3ccc4O)[C@H](O)c3ccc(c(Cl)c3)Oc3cc2cc(c3O[C@@H]2O[C@H](CO)[C@@H](O)[C@H](O)[C@H]2O[C@H]2C[C@](C)(N)[C@H](O)[C@H](C)O2)Oc2ccc(cc2Cl)[C@H]1O [Vancomycin, vancomycin, reference compound] | > 100 µM
O=C(Nc1cccc(Cl)c1)c1cccc(Br)c1 [Compound 24, 3-Bromo-N-(3-chlorophenyl)benzamide] | 51.3 µM
O=C(Nc1cccc(Cl)c1)c1cc(Br)cc(Br)c1O | 18.2 µM

====

# tested_on: native Rho (rhodanese) (Bos taurus, UniProt P00586)
# Construct: purchased Roche (so in the source) R1756
# Sequence (P00586 whole entry): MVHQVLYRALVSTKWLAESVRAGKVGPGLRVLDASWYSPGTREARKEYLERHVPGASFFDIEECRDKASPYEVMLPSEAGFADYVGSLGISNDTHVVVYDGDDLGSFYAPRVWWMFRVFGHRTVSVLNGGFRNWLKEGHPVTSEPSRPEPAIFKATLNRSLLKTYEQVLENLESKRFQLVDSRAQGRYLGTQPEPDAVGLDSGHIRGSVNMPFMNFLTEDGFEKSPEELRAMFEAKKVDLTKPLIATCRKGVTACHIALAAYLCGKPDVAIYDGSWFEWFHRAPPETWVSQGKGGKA
# experiment_summary: Counter-screen for inhibition of native rhodanese enzymatic activity
# Format: biochemical
pIC50: −log10 of the molar value.
pIC50 listing for selected molecules.
assay_endpoint: pIC50

molecule | tested_on | result
CN[C@H](CC(C)C)C(=O)N[C@H]1C(=O)N[C@@H](CC(N)=O)C(=O)N[C@H]2C(=O)N[C@H]3C(=O)N[C@H](C(=O)N[C@H](C(=O)O)c4cc(O)cc(O)c4-c4cc3ccc4O)[C@H](O)c3ccc(c(Cl)c3)Oc3cc2cc(c3O[C@@H]2O[C@H](CO)[C@@H](O)[C@H](O)[C@H]2O[C@H]2C[C@](C)(N)[C@H](O)[C@H](C)O2)Oc2ccc(cc2Cl)[C@H]1O [Vancomycin, vancomycin, reference compound] | native Rho (rhodanese) (Bos taurus, UniProt P00586) | < 4.00
O=C(Nc1ccc(Oc2ccc(Cl)cc2)c(Cl)c1)c1cc(I)cc(I)c1O [Rafoxanide, rafoxanide, reference compound] | native Rho (rhodanese) (Bos taurus, UniProt P00586) | < 4.00
O=C(Nc1ccccc1)c1ccccc1O [Compound 16, 2-Hydroxy-N-phenylbenzamide] | native Rho (rhodanese) (Bos taurus, UniProt P00586) | < 4.00

====

# tested_on: native Rho (rhodanese) (Bos taurus)
# Construct: purchased Roche (so in the source) R1756
# experiment_summary: Counter-screen for inhibition of native rhodanese enzymatic activity
# Format: biochemical
# study_conditions: log of IC50 (μM scale), with standard deviation
# Procedure: Reagent Preparations & Assay Protocol: Reagents were identical to those used in the GroEUES-dRho refolding assay described above; however, the assay protocol differed in the sequence of compound addition to the wells. Compounds were pin-transferred after the 60 minute incubation for the refolding cycle, but prior to the addition of the thiocyanate enzymatic assay stock. […] IC50 values for the rhodenase reporter enzyme were determined as described above. […]

compound | log(IC50) Native Rho Reporter
COc1ccccc1C(=O)Nc1cccc(Cl)c1 [Compound 40, N-(3-Chlorophenyl)-2-methoxybenzamide] | >2
O=C(Nc1ccccc1)c1cc(Br)ccc1O [Compound 15, 5-Bromo-2-hydroxy-N-phenylbenzamide] | >2
O=C(Nc1cccc(Cl)c1)c1cc(Br)ccc1O | >2
O=C(Nc1cccc(Cl)c1)c1cc(Br)cc(Br)c1O | >2
COc1c(Br)cc(Br)cc1C(=O)Nc1ccccc1 [Compound 41, 3,5-Dibromo-2-methoxy-N-phenylbenzamide] | >2
Cc1cc(C(C#N)c2ccc(Cl)cc2)c(Cl)cc1NC(=O)c1cc(I)cc(I)c1O (stereo not shown) [Closantel, closantel, reference compound] | >2
CN[C@H](CC(C)C)C(=O)N[C@H]1C(=O)N[C@@H](CC(N)=O)C(=O)N[C@H]2C(=O)N[C@H]3C(=O)N[C@H](C(=O)N[C@H](C(=O)O)c4cc(O)cc(O)c4-c4cc3ccc4O)[C@H](O)c3ccc(c(Cl)c3)Oc3cc2cc(c3O[C@@H]2O[C@H](CO)[C@@H](O)[C@H](O)[C@H]2O[C@H]2C[C@](C)(N)[C@H](O)[C@H](C)O2)Oc2ccc(cc2Cl)[C@H]1O [Vancomycin, vancomycin, reference compound] | >2
COc1ccccc1C(=O)Nc1ccccc1 [Compound 44, 2-Methoxy-N-phenylbenzamide] | >2
COc1ccc(Br)cc1C(=O)Nc1cccc(Cl)c1 | >2
CC1(C)S[C@@H]2[C@H](NC(=O)[C@H](N)c3ccccc3)C(=O)N2[C@H]1C(=O)O [Ampicillin, ampicillin, reference compound] | >2
O=C(Nc1cccc(Cl)c1)c1ccccc1 [Compound 25, N-(3-Chlorophenyl)benzamide] | >2
O=C(Nc1ccccc1)c1cc(Br)cc(Br)c1O [Compound 13, 3,5-Dibromo-2-hydroxy-N-phenylbenzamide] | >2
O=C(Nc1ccccc1)c1cc(Br)cc(Br)c1 [Compound 26, 3,5-Dibromo-N-phenylbenzamide] | >2
O=C(Nc1ccc(Oc2ccc(Cl)cc2)c(Cl)c1)c1cc(I)cc(I)c1O [Rafoxanide, rafoxanide, reference compound] | >2
O=C(Nc1ccccc1)c1cccc(Br)c1 [Compound 27, 3-Bromo-N-phenylbenzamide] | >2
O=C(Nc1cccc(Cl)c1)c1ccccc1O [Compound 12, N-(3-Chlorophenyl)-2-hydroxybenzamide] | >2
